Values compiled from paper PMC3549563.

ASSAY_SYSTEM: ACR-16 (Caenorhabditis elegans, UniProt P48180)
Sequence (P48180 20-498): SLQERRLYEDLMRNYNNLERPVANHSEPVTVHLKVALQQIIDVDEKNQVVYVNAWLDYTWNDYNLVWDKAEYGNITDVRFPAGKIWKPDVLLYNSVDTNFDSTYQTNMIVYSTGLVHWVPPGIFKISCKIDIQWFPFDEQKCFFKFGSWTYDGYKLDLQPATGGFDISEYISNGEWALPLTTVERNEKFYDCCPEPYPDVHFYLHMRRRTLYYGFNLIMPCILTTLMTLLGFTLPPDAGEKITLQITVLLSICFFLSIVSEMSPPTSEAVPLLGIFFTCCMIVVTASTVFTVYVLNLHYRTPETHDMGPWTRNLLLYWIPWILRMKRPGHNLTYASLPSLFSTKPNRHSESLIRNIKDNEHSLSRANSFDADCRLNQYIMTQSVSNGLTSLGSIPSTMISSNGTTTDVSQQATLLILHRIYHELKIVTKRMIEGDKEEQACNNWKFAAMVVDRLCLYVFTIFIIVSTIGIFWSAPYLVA
ASSAY_DETAILS: two-electrode voltage clamp, Xenopus oocytes, peak current
Assay type: cell-based
Each entry below carries its reported EC50.
Answer format: numeric, µM implied, no suffix.

Query: Would you kindly share the measured EC50 for CC(=O)OCC[N+](C)(C)C [acetylcholine] ?
Result: 24

Query: Moving on to CN1CCC[C@H]1c1cccnc1 [nicotine]
Result: 22
